Tested on: S. aureus (KCTC 1621)
Format: cell-based, Staphylococcus aureus
Conditions: Control, absence of salts
Procedure: To comprehensively evaluate the therapeutic potential of BP100 and the five selected analogs, we assessed their capacity to maintain antibacterial activity in the presence of physiological salts and serum (Table 4). […] The minimal inhibitory concentrations (MICs) of the peptides against bacterial strains were determined using a modified broth-microdilution method in accordance with the National Committee for Clinical Laboratory Standards (NCCLS) guidelines. […]
Where no end group is shown, it is not given here.
parameter: MIC

> print(dat)
                substance  parameter  result.value
1   KKWWKKILKYL-NH2 [BP5]        MIC          2 µM
2   KKLWKKILKWL-NH2 [BP8]        MIC          4 µM
3   KKWFKKILKWL-NH2 [BP6]        MIC          2 µM
4  KKLFKKIWKWL-NH2 [BP11]        MIC          4 µM
5  KKWFKKWLKWL-NH2 [BP13]        MIC          4 µM

====

# key: entry, value: Minimal Inhibitory Concentration (MIC)
Tested on: B. subtilis (KCTC 3068)
Format: cell-based, Bacillus subtilis
Settings: broth microdilution in MHB, 37 °C, 24 h, 100% inhibition of growth
Where no end group is shown, it is not given here.
parameter: Minimal Inhibitory Concentration (MIC) (µM)

> print(dat)
                substance  result.value
1  KKLFKKILKWW-NH2 [BP12]             8
2   KKLFKKWWKYL-NH2 [BP9]            16
3   KKLWKKILKWL-NH2 [BP8]             8
4  KKLFKKIWKWL-NH2 [BP11]             8

====

Tested on: MDRPA (CCARM 2095) biofilm formation
Type: cell-based, multidrug-resistant Pseudomonas aeruginosa
Conditions: overnight 37 °C, crystal violet staining, 90% inhibition
Where no end group is shown, it is not given here.
Listed here: items and their measured MBIC90.
parameter: MBIC90

> print(dat)
                 substance  parameter  result.value
 1  KKLWKKIWKYW-NH2 [BP15]     MBIC90          8 µM
 2  KKLFKKWWKWL-NH2 [BP16]     MBIC90         16 µM
 3   KKLFKKWWKYL-NH2 [BP9]     MBIC90         16 µM
 4  KKLFKKIWKWL-NH2 [BP11]     MBIC90          8 µM
 5   KKWWKKILKYL-NH2 [BP5]     MBIC90          8 µM
 6  KKWFKKWLKWL-NH2 [BP13]     MBIC90          8 µM
 7   KKLWKKILKWL-NH2 [BP8]     MBIC90          8 µM
 8  KKLFKKILKWW-NH2 [BP12]     MBIC90          8 µM
 9  KKLWKKWLKYW-NH2 [BP14]     MBIC90         16 µM
10  KKLFKKWLKYW-NH2 [BP10]     MBIC90         32 µM
11   KKLWKKIWKYL-NH2 [BP7]     MBIC90          8 µM
12   KKWFKKILKWL-NH2 [BP6]     MBIC90          8 µM

====

Tested on: MDRPA (CCARM 2095) biofilm formation
Assay type: cell-based, multidrug-resistant Pseudomonas aeruginosa
Details: overnight 37 °C, crystal violet staining, 50% inhibition
Each item that follows carries a reported MBIC50.

compound	MBIC50
CC[C@H](C)[C@H](NC(=O)[C@H](CCCCN)NC(=O)[C@H](CCCCN)NC(=O)[C@H](Cc1ccccc1)NC(=O)[C@H](CC(C)C)NC(=O)[C@H](CCCCN)NC(=O)[C@@H](N)CCCCN)C(=O)N[C@@H](CC(C)C)C(=O)N[C@@H](CCCCN)C(=O)N[C@@H](Cc1ccc(O)cc1)C(=O)N[C@@H](CC(C)C)C(N)=O [BP100]	4 to 8 µM
CC(C)C[C@H](NC(=O)[C@H](Cc1ccc(O)cc1)NC(=O)[C@H](CCCCN)NC(=O)[C@H](CC(C)C)NC(=O)[C@H](Cc1c[nH]c2ccccc12)NC(=O)[C@H](CCCCN)NC(=O)[C@H](CCCCN)NC(=O)[C@H](Cc1ccccc1)NC(=O)[C@H](CC(C)C)NC(=O)[C@H](CCCCN)NC(=O)[C@@H](N)CCCCN)C(N)=O [BP2]	8 to 16 µM
CC[C@H](C)[C@H](NC(=O)[C@H](CCCCN)NC(=O)[C@H](CCCCN)NC(=O)[C@H](Cc1ccccc1)NC(=O)[C@H](CC(C)C)NC(=O)[C@H](CCCCN)NC(=O)[C@@H](N)CCCCN)C(=O)N[C@@H](Cc1c[nH]c2ccccc12)C(=O)N[C@@H](CCCCN)C(=O)N[C@@H](Cc1ccc(O)cc1)C(=O)N[C@@H](CC(C)C)C(N)=O [BP3]	8 to 16 µM
CC[C@H](C)[C@H](NC(=O)[C@H](CCCCN)NC(=O)[C@H](CCCCN)NC(=O)[C@H](Cc1ccccc1)NC(=O)[C@H](CC(C)C)NC(=O)[C@H](CCCCN)NC(=O)[C@@H](N)CCCCN)C(=O)N[C@@H](CC(C)C)C(=O)N[C@@H](CCCCN)C(=O)N[C@@H](Cc1c[nH]c2ccccc12)C(=O)N[C@@H](CC(C)C)C(N)=O [BP4]	4 to 8 µM
CC[C@H](C)[C@H](NC(=O)[C@H](CCCCN)NC(=O)[C@H](CCCCN)NC(=O)[C@H](Cc1c[nH]c2ccccc12)NC(=O)[C@H](CC(C)C)NC(=O)[C@H](CCCCN)NC(=O)[C@@H](N)CCCCN)C(=O)N[C@@H](CC(C)C)C(=O)N[C@@H](CCCCN)C(=O)N[C@@H](Cc1ccc(O)cc1)C(=O)N[C@@H](CC(C)C)C(N)=O [BP1]	4 to 8 µM

====

Test system: S. aureus (KCTC 1621)
Type: cell-based, Staphylococcus aureus
Conditions: 2.5 mM of CaCl2
Where no end group is shown, it is not given here.
parameter: MIC (µM)

> print(dat)
                substance            test.target  parameter  result.value
1   KKLWKKILKWL-NH2 [BP8]  S. aureus (KCTC 1621)        MIC             4
2   KKWWKKILKYL-NH2 [BP5]  S. aureus (KCTC 1621)        MIC             4
3   KKWFKKILKWL-NH2 [BP6]  S. aureus (KCTC 1621)        MIC             4
4  KKLFKKIWKWL-NH2 [BP11]  S. aureus (KCTC 1621)        MIC            16
5  KKWFKKWLKWL-NH2 [BP13]  S. aureus (KCTC 1621)        MIC             8

====

Here the recorded MIC is given for each entry.
Test system: E. coli (KCTC 1682)
Assay type: cell-based, Escherichia coli
Conditions: 150 mM of NaCl
Protocol: To comprehensively evaluate the therapeutic potential of BP100 and the five selected analogs, we assessed their capacity to maintain antibacterial activity in the presence of physiological salts and serum (Table 4). […] The minimal inhibitory concentrations (MICs) of the peptides against bacterial strains were determined using a modified broth-microdilution method in accordance with the National Committee for Clinical Laboratory Standards (NCCLS) guidelines. […]
Where no end group is shown, it is not given here.
parameter: MIC

> print(dat)
                substance          test.target  result.value
1  KKLFKKIWKWL-NH2 [BP11]  E. coli (KCTC 1682)         16 µM
2   KKLWKKILKWL-NH2 [BP8]  E. coli (KCTC 1682)          8 µM
3  KKWFKKWLKWL-NH2 [BP13]  E. coli (KCTC 1682)         16 µM
4   KKWFKKILKWL-NH2 [BP6]  E. coli (KCTC 1682)          8 µM
5   KKWWKKILKYL-NH2 [BP5]  E. coli (KCTC 1682)          8 µM

====

Test system: S. aureus (KCTC 1621)
Format: cell-based, Staphylococcus aureus
Conditions: 1 mM of MgCl2
Where no end group is shown, it is not given here.
Listing: MIC of selected substances
parameter: MIC (µM)

> print(dat)
                substance  unit.info  result.value
1  KKLFKKIWKWL-NH2 [BP11]         µM             4
2  KKWFKKWLKWL-NH2 [BP13]         µM             8
3   KKWWKKILKYL-NH2 [BP5]         µM             4
4   KKWFKKILKWL-NH2 [BP6]         µM             4
5   KKLWKKILKWL-NH2 [BP8]         µM             4
